The measured values listed here are drawn from patent US9238656B2.

# assayed.target: baculovirus-expressed ALK (Homo sapiens, UniProt Q9UM73)
# Sequence (Q9UM73 19-1620): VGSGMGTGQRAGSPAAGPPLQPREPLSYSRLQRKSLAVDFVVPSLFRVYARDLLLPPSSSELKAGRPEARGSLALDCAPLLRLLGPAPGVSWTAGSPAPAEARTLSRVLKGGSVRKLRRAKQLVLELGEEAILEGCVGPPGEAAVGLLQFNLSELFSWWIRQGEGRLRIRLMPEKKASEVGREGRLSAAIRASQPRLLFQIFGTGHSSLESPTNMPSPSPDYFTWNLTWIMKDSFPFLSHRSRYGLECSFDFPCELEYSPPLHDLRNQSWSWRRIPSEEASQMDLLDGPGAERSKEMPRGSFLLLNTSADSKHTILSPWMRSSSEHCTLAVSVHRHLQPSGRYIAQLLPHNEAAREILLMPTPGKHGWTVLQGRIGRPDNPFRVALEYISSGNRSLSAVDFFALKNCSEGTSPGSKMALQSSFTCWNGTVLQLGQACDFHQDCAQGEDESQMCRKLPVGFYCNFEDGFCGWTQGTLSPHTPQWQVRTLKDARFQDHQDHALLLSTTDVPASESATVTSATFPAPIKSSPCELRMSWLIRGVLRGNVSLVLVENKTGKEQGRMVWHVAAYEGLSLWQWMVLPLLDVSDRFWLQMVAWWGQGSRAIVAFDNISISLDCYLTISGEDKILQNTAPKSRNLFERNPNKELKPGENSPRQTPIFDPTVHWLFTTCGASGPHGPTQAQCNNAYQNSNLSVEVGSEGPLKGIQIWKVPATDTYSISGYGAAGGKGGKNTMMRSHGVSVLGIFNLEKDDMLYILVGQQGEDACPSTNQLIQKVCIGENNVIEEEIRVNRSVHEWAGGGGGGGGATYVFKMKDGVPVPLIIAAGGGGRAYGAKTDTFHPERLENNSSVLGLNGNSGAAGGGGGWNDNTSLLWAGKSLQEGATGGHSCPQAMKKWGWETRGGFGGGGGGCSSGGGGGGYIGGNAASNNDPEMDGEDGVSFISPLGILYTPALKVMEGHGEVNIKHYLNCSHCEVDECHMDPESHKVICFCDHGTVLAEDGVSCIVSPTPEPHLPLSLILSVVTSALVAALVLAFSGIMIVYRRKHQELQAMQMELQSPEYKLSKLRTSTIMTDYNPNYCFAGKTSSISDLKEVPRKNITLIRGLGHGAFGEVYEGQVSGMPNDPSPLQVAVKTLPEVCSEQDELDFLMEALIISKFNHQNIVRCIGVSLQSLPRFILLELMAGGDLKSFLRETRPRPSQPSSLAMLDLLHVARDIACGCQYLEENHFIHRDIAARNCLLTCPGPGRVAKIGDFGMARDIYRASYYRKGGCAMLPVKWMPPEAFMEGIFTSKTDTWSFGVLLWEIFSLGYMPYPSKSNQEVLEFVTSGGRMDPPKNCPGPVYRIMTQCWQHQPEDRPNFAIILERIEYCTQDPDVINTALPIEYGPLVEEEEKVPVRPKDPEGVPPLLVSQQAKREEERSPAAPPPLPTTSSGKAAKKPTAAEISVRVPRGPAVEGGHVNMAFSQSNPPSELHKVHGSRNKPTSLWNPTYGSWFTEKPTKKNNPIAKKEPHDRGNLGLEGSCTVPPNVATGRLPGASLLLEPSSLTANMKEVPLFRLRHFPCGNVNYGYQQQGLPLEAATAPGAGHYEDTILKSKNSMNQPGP
# assay.overview: ALK kinase inhibition, TRF/ELISA
# Type: biochemical
# settings: read-out: ALK Potency
pIC50: −log10 of the molar value.
readout.name: pIC50

Worked set:
| smiles.input | pIC50 |
| --- | --- |
| Cn1cc(-c2nc3c(N[C@H]4[C@@H](C(N)=O)[C@@H]5CC[C@H]4O5)c(Cl)cnc3[nH]2)cn1 | < 5.00 |
| CN(C)CCOc1ccc(-c2nc3c(N[C@H]4[C@@H](C(N)=O)[C@@H]5C=C[C@H]4C5)c(Cl)cnc3[nH]2)cc1 | > 7.00 |
| COc1cc(CN2CCN(C[C@H](C)O)CC2)ccc1-c1nc2c(N[C@H]3[C@@H](C(N)=O)[C@@H]4C=C[C@H]3C4)c(Cl)cnc2[nH]1 | > 7.00 |
| NC(=O)[C@@H]1[C@H](Nc2c(Cl)cnc3[nH]c(-c4ccc(N5CCOCC5)cc4)nc23)[C@H]2CC[C@@H]1O2 | 5.00 to 6.00 |
| NC(=O)[C@@H]1[C@H](Nc2c(Cl)cnc3[nH]c(-c4cccnc4N4CCOCC4)nc23)[C@H]2C=C[C@@H]1C2 | 5.00 to 6.00 |

Kindly review the next molecule as well.
Name the recorded pIC50 for COc1cc(N2CCC(N3CCN(C)CC3)CC2)ccc1-c1nc2c(N[C@H]3[C@@H](C(N)=O)[C@@H]4C=C[C@H]3C4)ccnc2[nH]1 .
6.00 to 7.00

* * *

The compounds listed here are annotated with their melting point.

| compound | melting point |
| --- | --- |
| COc1cc(N2CCN(C)CC2)ccc1-c1nc2c(N[C@H]3[C@@H](C(N)=O)[C@@H]4C=C[C@H]3C4)c(Br)cnc2[nH]1 | 185 to 195 °C |

Kindly review the next compound as well.
Name the recorded melting point for NC(=O)[C@@H]1[C@H](Nc2c(Br)cnc3[nH]c(-c4ccccc4-n4cccn4)nc23)[C@H]2C=C[C@@H]1C2 .
120 °C

* * *

The molecules listed here are annotated with their pIC50.
# assayed.target: UniProt:Q9UM73
# assay.overview: ALK kinase inhibition, TRF/ELISA
# Type: biochemical
# settings: read-out: ALK Potency
pIC50: −log10 of the molar value.

| molecule | assayed.target | result |
| --- | --- | --- |
| NC(=O)[C@@H]1[C@H](Nc2c(Cl)cnc3[nH]c(-c4ccccc4F)nc23)[C@H]2C=C[C@@H]1C2 | UniProt:Q9UM73 | 6.00 to 7.00 |

Name the recorded pIC50 for CC(O)CN1CCN(C(=O)COc2cccc(-c3nc4c(N[C@H]5[C@@H](C(N)=O)[C@@H]6C=C[C@H]5C6)c(Cl)cnc4[nH]3)c2)CC1 (stereo partly drawn) .
6.00 to 7.00

* * *

# assayed.target: baculovirus-expressed JAK2 kinase (Homo sapiens, UniProt O60674)
# Sequence (O60674 whole entry): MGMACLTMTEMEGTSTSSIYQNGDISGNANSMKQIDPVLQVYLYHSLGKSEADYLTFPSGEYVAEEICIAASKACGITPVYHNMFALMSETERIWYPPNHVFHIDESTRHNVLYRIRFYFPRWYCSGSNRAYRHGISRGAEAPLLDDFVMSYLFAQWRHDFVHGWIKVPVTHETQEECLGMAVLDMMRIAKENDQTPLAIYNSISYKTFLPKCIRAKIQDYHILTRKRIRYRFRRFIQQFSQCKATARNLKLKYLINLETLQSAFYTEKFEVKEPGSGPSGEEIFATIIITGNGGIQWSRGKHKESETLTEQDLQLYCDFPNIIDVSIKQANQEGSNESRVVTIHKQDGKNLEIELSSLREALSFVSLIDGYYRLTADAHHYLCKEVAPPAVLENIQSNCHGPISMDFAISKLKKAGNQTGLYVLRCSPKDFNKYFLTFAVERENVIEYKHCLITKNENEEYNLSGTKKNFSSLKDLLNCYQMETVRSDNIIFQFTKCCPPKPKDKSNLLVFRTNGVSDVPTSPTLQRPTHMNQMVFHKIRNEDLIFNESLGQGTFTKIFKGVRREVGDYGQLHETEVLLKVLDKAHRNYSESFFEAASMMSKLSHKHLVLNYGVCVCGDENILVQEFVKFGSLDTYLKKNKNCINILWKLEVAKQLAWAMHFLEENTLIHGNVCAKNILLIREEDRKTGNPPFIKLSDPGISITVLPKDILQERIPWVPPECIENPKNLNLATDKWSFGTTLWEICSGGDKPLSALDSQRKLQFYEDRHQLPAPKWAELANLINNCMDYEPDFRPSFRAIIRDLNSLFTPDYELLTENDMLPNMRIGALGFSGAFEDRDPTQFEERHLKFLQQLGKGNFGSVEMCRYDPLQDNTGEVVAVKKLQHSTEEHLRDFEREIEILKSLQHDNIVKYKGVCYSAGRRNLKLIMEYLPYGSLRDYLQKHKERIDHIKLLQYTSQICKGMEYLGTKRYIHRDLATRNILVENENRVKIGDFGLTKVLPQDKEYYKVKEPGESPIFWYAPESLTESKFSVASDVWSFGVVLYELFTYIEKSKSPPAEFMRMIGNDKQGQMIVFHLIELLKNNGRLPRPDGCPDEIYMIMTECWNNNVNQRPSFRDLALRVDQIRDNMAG
# assay.overview: biochemical
# settings: 0.2 μM ATP; read-out: JAK2 Potency
# Procedure: Compounds were tested for their ability to inhibit the kinase activity of baculovirus-expressed JAK2 kinase using the time-resolved fluorescence (TRF) detection system. […] Inhibition data were analyzed using ActivityBase (IDBS, Guilford, UK). IC50 values were calculated by plotting percent inhibition versus log10 of the concentration of compound and fitting to the nonlinear regression sigmoidal dose-response (variable slope) equation in XLFit (IDBS, Guilford, UK).
readout.name: IC50

Worked set:
| molecule | assayed.target | IC50 |
| --- | --- | --- |
| COc1cc(C2CCN(C)CC2)ccc1-c1nc2c(N[C@H]3[C@@H](C(N)=O)[C@@H]4C=C[C@H]3C4)c(Cl)cnc2[nH]1 | baculovirus-expressed JAK2 kinase (Homo sapiens, UniProt O60674) | < 100 nM |
| Cn1cccc1-c1nc2c(N[C@H]3[C@@H](C(N)=O)[C@@H]4C=C[C@H]3C4)c(Br)cnc2[nH]1 | baculovirus-expressed JAK2 kinase (Homo sapiens, UniProt O60674) | < 100 nM |
| CN1CCN(C(=O)c2ccc(-c3nc4c(N[C@H]5[C@@H](C(N)=O)[C@@H]6C=C[C@H]5C6)c(Cl)cnc4[nH]3)cc2)CC1 | baculovirus-expressed JAK2 kinase (Homo sapiens, UniProt O60674) | < 100 nM |

So what IC50 did COc1ccc(-c2nc3c(N[C@H]4[C@@H](C(N)=O)[C@@H]5C=C[C@H]4C5)c(Cl)cnc3[nH]2)c(C2CCN(C[C@H](C)O)CC2)c1 get with baculovirus-expressed JAK2 kinase (Homo sapiens, UniProt O60674)?
1000 to 10000 nM

Can you handle Cn1cc(-c2nc3c(N[C@@]45CCC(C)(C(O)C4)C5(C)C)c(Cl)cnc3[nH]2)cn1 (stereo partly drawn) next?
< 100 nM

Can you handle CC(=O)N1CCN(Cc2ccc(-c3nc4c(N[C@H]5[C@@H](C(N)=O)[C@@H]6C=C[C@H]5C6)c(Cl)cnc4[nH]3)cc2)CC1 next?
< 100 nM

* * *

The compounds listed here are annotated with their pIC50.
# assayed.target: baculovirus-expressed JAK2 kinase (Homo sapiens)
# assay.overview: biochemical
# settings: 0.2 μM ATP; read-out: JAK2 Potency
pIC50: −log10 of the molar value. Where a name gives a salt, the structure may show the parent alone.

Worked set:
| compound | assayed.target | result |
| --- | --- | --- |
| COc1cc(N2CCOCC2)ccc1-c1nc2c(N[C@@H]3CCCC[C@H]3NS(C)(=O)=O)c(Cl)cnc2[nH]1 [Compound LXXII] | baculovirus-expressed JAK2 kinase (Homo sapiens) | < 5.00 |
| CC(O)CN1CCC(Oc2cccc(-c3nc4c(N[C@H]5[C@@H](C(N)=O)[C@@H]6C=C[C@H]5C6)c(Cl)cnc4[nH]3)c2)CC1 (stereo partly drawn) [Compound CCLI] | baculovirus-expressed JAK2 kinase (Homo sapiens) | > 7.00 |
| O=C(NC1CC1)[C@@H]1[C@H](Nc2c(Cl)cnc3[nH]c(-c4sc(N5CCOCC5)nc4Cl)nc23)[C@H]2C=C[C@@H]1C2 [Compound CLXXIV] | baculovirus-expressed JAK2 kinase (Homo sapiens) | 6.00 to 7.00 |

Name the recorded pIC50 for CN1CCN(Cc2ccc(-c3nc4c(N[C@H]5[C@@H](C(N)=O)[C@@H]6C=C[C@H]5C6)c(Cl)cnc4[nH]3)cc2)CC1 [Compound XX, bis trifluoroacetic acid salt] .
> 7.00

* * *

# assayed.target: baculovirus-expressed ALK (Homo sapiens, UniProt Q9UM73)
# assay.overview: ALK kinase inhibition, TRF/ELISA
# Format: biochemical
# settings: read-out: ALK Potency
readout.name: IC50

Worked set:
| compound | readout.name | result |
| --- | --- | --- |
| NC(=O)[C@@H]1[C@H](Nc2c(Cl)cnc3[nH]c(-c4ccc(OCCN5CCOCC5)cc4)nc23)[C@H]2C=C[C@@H]1C2 [Compound CCXXXIX] | IC50 | < 100 nM |
| NC(=O)[C@@H]1[C@H](Nc2c(Cl)cnc3[nH]c(-c4ccc(C(=O)O)cc4)nc23)[C@H]2C=C[C@@H]1C2 [Compound CCXVIII] | IC50 | 100 to 1000 nM |
| CC(C)NC(=O)[C@@H]1[C@H](Nc2c(Cl)cnc3[nH]c(-c4sc(N5CCOCC5)nc4Cl)nc23)[C@H]2C=C[C@@H]1C2 [Compound CLXIII] | IC50 | < 100 nM |
| NC(=O)[C@@H]1[C@H](Nc2c(Br)cnc3[nH]c(-c4ccc(C(F)(F)F)nc4)nc23)[C@H]2C=C[C@@H]1C2 [Compound CXXXIX] | IC50 | 1000 to 10000 nM |
| Cc1cc(N2CCOCC2)ccc1-c1nc2c(N[C@H]3[C@@H](C(N)=O)[C@@H]4C=C[C@H]3C4)c(Cl)cnc2[nH]1 [Compound CXXI] | IC50 | 100 to 1000 nM |
| Cn1cccc1-c1nc2c(N[C@H]3[C@@H](C(N)=O)[C@@H]4C=C[C@H]3C4)c(Br)cnc2[nH]1 [Compound CIX] | IC50 | < 100 nM |
| NC(=O)[C@@H]1[C@H](Nc2c(Cl)cnc3[nH]c(-c4cccc(F)c4)nc23)[C@H]2C=C[C@@H]1C2 [Compound CXXVIII] | IC50 | 100 to 1000 nM |
| NC(=O)[C@@H]1[C@H](Nc2c(Br)cnc3[nH]c(-c4sc(N5CCOCC5)nc4Cl)nc23)[C@H]2C=C[C@@H]1C2 [Compound CLXI] | IC50 | < 100 nM |

So what IC50 did CN(C)c1nc(Cl)c(-c2nc3c(N[C@H]4[C@@H](C(N)=O)[C@@H]5C=C[C@H]4C5)c(Br)cnc3[nH]2)s1 [Compound CLV] get with baculovirus-expressed ALK (Homo sapiens, UniProt Q9UM73)?
< 100 nM

Can you handle CN1CCN(CCOc2ccc(-c3nc4c(N[C@H]5[C@@H](C(N)=O)[C@@H]6C=C[C@H]5C6)c(Cl)cnc4[nH]3)cc2)CC1 [Compound CCL] next?
< 100 nM

Can you handle COc1cc(C2CCN(C[C@@H](O)CO)CC2)ccc1-c1nc2c(N[C@H]3[C@@H](C(N)=O)[C@@H]4C=C[C@H]3C4)c(Cl)cnc2[nH]1 [Compound CXVIII] next?
< 100 nM

Can you handle COc1cc(N2CCOCC2)ccc1-c1nc2c(N3C[C@@H]4C[C@H]3CN4C(=O)OC(C)(C)C)c(Cl)cnc2[nH]1 [Compound XXXVI] next?
> 10000 nM

Can you handle COc1cccc(OC)c1-c1nc2c(N[C@H]3[C@@H](C(N)=O)[C@@H]4C=C[C@H]3C4)c(Br)cnc2[nH]1 [Compound CVI] next?
1000 to 10000 nM
